I'd be grateful if you could share measured IC50 (nM) in Human IL-21R-BaF3 Neutralization Assay for these entries.
- Tested Target: human IL-21R expressed on cells (human, UniProt Q9HBE5 20-538)
- Sequence (Q9HBE5 20-538 limits assumed): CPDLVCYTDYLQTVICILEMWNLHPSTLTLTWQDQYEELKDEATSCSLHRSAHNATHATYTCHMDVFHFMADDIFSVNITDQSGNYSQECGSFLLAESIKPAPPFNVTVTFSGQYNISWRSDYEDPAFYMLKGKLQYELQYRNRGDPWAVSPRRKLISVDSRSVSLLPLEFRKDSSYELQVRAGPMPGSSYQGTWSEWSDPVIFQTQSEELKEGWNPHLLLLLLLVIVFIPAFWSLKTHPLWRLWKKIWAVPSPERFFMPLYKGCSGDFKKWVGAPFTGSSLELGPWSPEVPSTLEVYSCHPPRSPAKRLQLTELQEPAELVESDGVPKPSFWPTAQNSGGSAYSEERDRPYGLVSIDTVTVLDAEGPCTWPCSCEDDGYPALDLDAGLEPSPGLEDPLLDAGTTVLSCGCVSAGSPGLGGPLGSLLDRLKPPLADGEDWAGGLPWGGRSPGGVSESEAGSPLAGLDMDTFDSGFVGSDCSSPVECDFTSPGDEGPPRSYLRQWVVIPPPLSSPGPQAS
- Measurement Protocol: cell-based or functional assay
State just the number; it will be interpreted in nM.

Request: # lookup: IC50 (nM) in Human IL-21R-BaF3 Neutralization Assay of scFv L25 (scFv) scFv: QVQLQESGPGLVKTSETLSLTCAVSGYSISSGYYWGWIRQPPGKGLEWIGSISHTGNTYYNPPLKSRVTISVDTSKNQFSLKLSSVTAADTAVYYCARGGGISRPEYWGKGTLVTVSSGGGGSGGGGSGGGGSALSSELTQDPPVSVALGQTVTLTCQGDSLRTYYASWYQQKSGQAPILLLYGKHKRPSGIPDRFSGSTSGDTASLTITGAQAEDEADYYCTTRSNKGNPHVLFGGGTQLTVL
Result: 3.7

Request: What measured IC50 (nM) in Human IL-21R-BaF3 Neutralization Assay goes with scFv L3 (scFv) scFv: QVQLQESGPGLVKTSETLSLTCAVSGYSISSGYYWGWIRQPPGKGLEWIGSISHTGNTYYNPPLKSRVTISVDTSKNQFSLKLSSVTAADTAVYYCARGGGISRPEYWGKGTLVTVSSGGGGSGGGGSGGGGSALSSELTQDPPVSVALGQTVTLTCQGDSLRTYYASWYQQKSGQAPILLLYGKHKRPSGIPDRFSGSTSGDTASLTITGAQAEDEADYYCVSRAVVGNPHVLFGGGTQLTVL ?
Result: 27.6

Request: For the binder shown here, scFv H5 (scFv) scFv: QVQLQESGPGLVKTSETLSLTCAVSGYSISSGYYWGWIRQPPGKGLEWIGSISHTGNTYYNPPLKSRVTISVDTSKNQFSLKLSSVTAADTAVYYCARFLGFGRPEYWGKGTLVTVSSGGGGSGGGGSGGGGSALSSELTQDPPVSVALGQTVTLTCQGDSLRTYYASWYQQKSGQAPILLLYGKHKRPSGIPDRFSGSTSGDTASLTITGAQAEDEADYYCNSRDSSGNPHVLFGGGTQLTVL , give the reported IC50 (nM) in Human IL-21R-BaF3 Neutralization Assay.
Result: 7.9

meta.source: patent US20090298167A1
